# IC50 values compiled below
MEASURED ON: Tubulin
PROCEDURE SUMMARY: Displacement of [3H]colchicine from tubulin at 65 nM
Assay type: protein-complex assay, Homo sapiens
Report the value in nM with no unit label.

The examples below pair each entry with its known result.
- MOLECULE: "c1ccc(CNc2ccsc2-c2nnc(Nc3ccc4c(c3)OCCO4)o2)nc1"
  MEASURED ON: "Tubulin"
  ASSAY READOUT: "IC50"
  OBSERVED RESULT: 75
- MOLECULE: "c1ccc(CNc2ccccc2-c2cnc(Nc3ccc4c(c3)OCCO4)o2)nc1"
  MEASURED ON: "Tubulin"
  ASSAY READOUT: "IC50"
  OBSERVED RESULT: 10
- MOLECULE: "c1cnc(NCc2ccncc2)c(-c2nnc(Nc3ccc4c(c3)OCO4)o2)c1"
  MEASURED ON: "Tubulin"
  ASSAY READOUT: "IC50"
  OBSERVED RESULT: 30
- MOLECULE: "c1cncc(CNc2ncccc2-c2nnc(Nc3ccc4c(c3)OCCO4)o2)c1"
  MEASURED ON: "Tubulin"
  ASSAY READOUT: "IC50"
  OBSERVED RESULT: 30
- MOLECULE: "c1ccc(CNc2ncccc2-c2nnc(Nc3ccc4c(c3)OCO4)o2)nc1"
  MEASURED ON: "Tubulin"
  ASSAY READOUT: "IC50"
  OBSERVED RESULT: 30
- MOLECULE: "c1cnc(NCC2CCCO2)c(-c2nnc(Nc3ccc4c(c3)OCCO4)o2)c1 (stereo not drawn)"
  MEASURED ON: "Tubulin"
  ASSAY READOUT: "IC50"
  OBSERVED RESULT: 390

Q: Provide IC50 value for the following molecule: c1ccc(CNc2ccccc2-c2nnc(Nc3ccc4c(c3)OCCO4)o2)nc1
Result: 390

Q: Provide IC50 value for the following molecule: c1ccc(CNc2ncccc2-c2nnc(Nc3ccc4c(c3)OCCO4)o2)nc1
Result: 190
